Recorded values, source patent US4914201A.

- Tested on: 2-phenyl-1,4-benzoquinone-induced writhing in mice
- measurementDescription: 2-phenyl-1,4-benzoquinone-induced writhing test in mice (analgesia, phenylquinone writhing, PQW)
- Format: in vivo
Here the recorded Analgesic PQW, % Inhibition of Writhing at 20 mg/kg., s.c. is given for each entry.
Output spec: scalar in %, unitless text.

The cases that follow already have their Analgesic PQW, % Inhibition of Writhing at 20 mg/kg., s.c. on record.
Cc1nnc2n1-c1ccc(Cl)cc1-c1cc3ccccc3n1C2 :: 46
Cc1nnc2n1-c1ccccc1-c1c(Cl)c3ccccc3n1C2 :: 51
Cc1nnc2n1-c1ccc(Cl)cc1-c1c(Cl)c3ccccc3n1C2 :: 32

Please look at the following compound next.
// field: Analgesic PQW, % Inhibition of Writhing at 20 mg/kg., s.c.; key: `Cc1nnc2n1-c1ccccc1-c1cc3ccccc3n1C2` ; value = 37
